Tested on: TK-10 renal
Experiment notes: NCI-60 one-dose screen, 48 h
Settings: 10 µM
This is part of a sample that, as a whole, favours compounds with a hit. Of some 83,000 tested, about 20% had one in any assay. Activity calls are given as the source filed them. The calls were made as follows: active = growth percent below 10; inactive = the rest.
Choose one outcome from this list and give only that: active, inactive

Lookup: Per the assay record, what outcome was assigned to `CCOc1nc(-c2ccccc2)cc2c(O)c(C(=O)N/N=C/c3ccc(OC)cc3)[nH]c(=O)c12` ?
Found: inactive

Lookup: Per the assay record, what outcome was assigned to `COC(=O)c1cnc2c(c1)Oc1ccc(Cl)cc1-c1cc(C)nn1-2` ?
Found: inactive

Lookup: Per the assay record, what outcome was assigned to `COC(=O)[C@]12CC[C@@H](C)[C@H](C)[C@@H]1C1=CC[C@@H]3[C@@]4(C)C/C(=N\O)[C@H](O)[C@@]5(C)COC(=C45)C[C@@]3(C)[C@]1(C)CC2` ?
Found: active

Lookup: Per the assay record, what outcome was assigned to `CCOC(=O)c1c(C(F)(F)F)n([O-])c2ccc(OC)cc2[n+]1=O` ?
Found: inactive

Lookup: Per the assay record, what outcome was assigned to `O=C1CC[C@@H](C(=O)N[C@H]2CSSC[C@@H](C(=O)NCCc3ccccc3)NC(=O)[C@H](Cc3ccccc3)NC(=O)[C@@H]3CCCN3C(=O)[C@@H]3CCCN3C2=O)N1` ?
Found: inactive

Lookup: Per the assay record, what outcome was assigned to `Cc1ccc2nc(-c3ccc(OCC(=O)N=Nc4c(O)[nH]c5ccccc45)cc3)[nH]c2c1` ?
Found: inactive

Lookup: Per the assay record, what outcome was assigned to `COc1cc(-c2n/c(=C\c3c(O)[nH]c4ccccc34)cc3c2=Nc2ccccc2-3)cc(OC)c1OC` ?
Found: inactive

Lookup: Per the assay record, what outcome was assigned to `COc1cc(-c2cc(/C=C/C(C)=O)[nH]n2)cc(OC)c1OC` ?
Found: inactive

====

What growth was measured for each of the following?
Test system: T-47D breast
Experiment notes: NCI-60 one-dose screen, 48 h (100 = growth as untreated, 0 = no growth, -100 = all killed)
Settings: 10 µM
About 83,000 compounds went through this panel and 20% of them were active in at least one assay; those are over-represented in the sample as a whole.
The reply should contain only the number, in %.

Lookup: State the recorded growth for this entry: `COc1cc(-c2nc3cc(Cl)c(Cl)cc3[nH]2)ccc1OCC(=O)NN`
Found: 66.9

Lookup: State the recorded growth for this entry: `O=S(=O)(NC1c2ccccc2Oc2ccccc21)c1cc(Cl)ccc1Cl`
Found: 74.1

Lookup: State the recorded growth for this entry: `CCCCCCCCCCCCCCCC(=O)N1CCN(C)CC1`
Found: 74.3

Lookup: State the recorded growth for this entry: `Cc1ccc2oc(=O)cc(/C(=C3/C=CC=N3)c3ccc[nH]3)c2c1`
Found: -1.91

Lookup: State the recorded growth for this entry: `CCOC(=O)c1cc2c(n1Cc1cc(OC)cc(OC)c1)-c1oncc1CC2`
Found: 54.8

Lookup: State the recorded growth for this entry: `O=[N+]([O-])c1ccc(Br)o1`
Found: 91.3

Lookup: State the recorded growth for this entry: `C=C1C(=O)O[C@H]2[C@H]1CC/C(COC(=O)OCCCCCOC(=O)OC/C1=C/CC[C@@]3(C)O[C@H]3[C@H]3OC(=O)C(=C)[C@@H]3CC1)=C\CC[C@@]1(C)O[C@@H]21`
Found: -45

Lookup: State the recorded growth for this entry: `COc1ccc(-c2csc(NC(=O)CO[N+](=O)[O-])n2)cc1`
Found: 57

Lookup: State the recorded growth for this entry: `COc1cc(-c2c(C#N)c(N)n3c(nc4ccccc43)c2C#N)cc(Br)c1OC`
Found: 65.8

Lookup: State the recorded growth for this entry: `CCOc1nc(-c2ccccc2)cc2c(O)c(C(=O)NCCCO)[nH]c(=O)c12`
Found: 97.4
